Target: N-CTD (C-terminal domain of the SARS-CoV-2 nucleocapsid (N) protein) (Severe acute respiratory syndrome coronavirus 2, UniProt P0DTC9)
# reported IC50; entries follow
# answer = value followed by unit

Illustrative cases are given below, each with its answer.
SMILES_STRUCTURE	IC50
CC1(C)S[C@@H]2[C@H](NC(=O)[C@H](N)c3ccccc3)C(=O)N2[C@H]1C(=O)O	10.4 µM
CO/N=C(\C(=O)N[C@@H]1C(=O)N2C(C(=O)O)=C(CSc3nc(=O)c(=O)[nH]n3C)CS[C@H]12)c1csc(N)n1	12.4 µM

Field: next compound
Prompt: Which IC50 reading was recorded for the compound `CO/N=C(\C(=O)N[C@@H]1C(=O)N2C(C(=O)O)=C(COC(N)=O)CS[C@H]12)c1ccco1` ?
Response: 15.4 µM

----------
# reported pKd; entries follow
Biological target: N-CTD (C-terminal domain of the SARS-CoV-2 nucleocapsid (N) protein) (Severe acute respiratory syndrome coronavirus 2)
Keep in mind that pKd stands for -log10 of concentration in molar terms.

Illustrative cases are given below, each with its answer.
MOLECULE	pKd
CO/N=C(\C(=O)N[C@@H]1C(=O)N2C(C(=O)O)=C(COC(N)=O)CS[C@H]12)c1ccco1 [cefuroxime]	4.26
CO/N=C(\C(=O)N[C@@H]1C(=O)N2C(C(=O)O)=C(CSc3nc(=O)c(=O)[nH]n3C)CS[C@H]12)c1csc(N)n1 [ceftriaxone]	4.74

Field: next molecule
Prompt: Which pKd reading was recorded for the molecule CC1(C)S[C@@H]2[C@H](NC(=O)[C@H](N)c3ccccc3)C(=O)N2[C@H]1C(=O)O [ampicillin] ?
Response: 4.55
